Source of measurements: patent US20250368753A1

target: proprotein convertase subtilisin/kexin type 9 (PCSK9) (human) (UniProt Q8NBP7); test: DELFIA immunoassay (PerkinElmer Cat. #1244-330), full-length IgG on PCSK9
Reported Metric: Relative Binding to PCSK9 Measured by DELIFA Immunoassay

- Binder: "AB-11 (antibody, V domains shown) VH: QVQLVQSGAEVKKPGASVKVSCKASGYSFTSYYMHWVRQAPGQGLEWMGEIDLSGGSTNYNQKFQSRVTMTRDTSTSTVYMELSSLRSEDTAVYYCARERPLYAFDVWGQGTTVTVSS VL: DIQMTQSPSSLSASVGDRVTITCRASQGISSALAWYQQKPGKAPKLLIYSASYRYTGVPSRFSGSGSGTDFTFTISSLQPEDIATYYCQQRYSLWRTFGQGTKLEIK"
  Measured: 2.4
- Binder: "AB-5 (antibody, V domains shown) VH: QVQLVQSGAEVKKPGASVKVSCKASGYTFTSYWMHWVRQAPGQGLEWMGEISPSGGSTNYNEKFKSRVTMTRDTSTSTVYMELSSLRSEDTAVYYCARERPLYAMDVWGQGTTVTVSS VL: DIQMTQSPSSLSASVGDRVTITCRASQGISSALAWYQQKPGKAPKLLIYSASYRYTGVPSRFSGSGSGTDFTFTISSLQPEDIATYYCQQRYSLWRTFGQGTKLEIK"
  Measured: 4.3
- Binder: "AB-1 (antibody, V domains shown) VH: QVQLVQSGAEVKKPGASVKVSCKASGYTFTSYYMHWVRQAPGQGLEWMGEILPGGGTTNYNQKFKSRVTMTRDTSTSTVYMELSSLRSEDTAVYYCARESPLYASDIWGQGTTVTVSS VL: DIQMTQSPSSLSASVGDRVTITCRASQGISTALAWYQQKPGKAPKLLIYSASYLYTGVPSRFSGSGSGTDFTFTISSLQPEDIATYYCQQRYSLWRTFGQGTKLEIK"
  Measured: 1.8
